Attribution: patent US11590116B2

Item-by-item account of Ki
Molecular target: recombinant human ALK5 (TGF-βR1) protein (Homo sapiens)
Construct: purchased Life Technologies PR9075A
Assay: Biochemical ALK5 (TGF-βR1) assay to measure pKi (LANCE Ultra ULight kinase assay)
Conditions: apparent pKi from pIC50 by Cheng-Prusoff, read-out: ALK5 pKi (converted)

COMPOUND: Cc1cccc(-c2[nH]cnc2-c2ccc3ncc(-c4cccc(C(=O)O[C@H]5CCNC5)c4)cc3c2)n1
Ki: 0.0398 to 0.316 nM
--
COMPOUND: Cc1cccc(-c2n[nH]cc2-c2ccc3ncc(NCCN4CCCC4(C)C)cc3n2)n1
Ki: < 0.0316 nM
--
COMPOUND: Cc1cccc(-c2[nH]cnc2-c2ccc3ncc(NCCC4CNC4)cc3c2)n1
Ki: 0.0398 to 0.316 nM
--
COMPOUND: Cc1cccc(-c2n[nH]cc2-c2ccc3ncc(CNCCN4CCN(C(C)C)CC4)cc3n2)n1
Ki: 0.398 to 3.16 nM
--
COMPOUND: Cc1cccc(-c2[nH]cnc2-c2ccc3ncc(NCCN(C)C4CCNC4)cc3c2)n1 (racemic)
Ki: 0.0398 to 0.316 nM

With recombinant human ALK5 (TGF-βR1) protein (Homo sapiens) as the test system, provide measured Ki for this compound: `Cc1cccc(-c2[nH]cnc2-c2ccc3ncc(N4CC5(CCNCC5)C4)cc3c2)n1`
0.0398 to 0.316 nM

====

# reported Ki; entries follow
Molecular target: recombinant human ALK5 (TGF-βR1) protein (Homo sapiens, UniProt P36897)
Construct: purchased Life Technologies PR9075A
Sequence (P36897 34-503): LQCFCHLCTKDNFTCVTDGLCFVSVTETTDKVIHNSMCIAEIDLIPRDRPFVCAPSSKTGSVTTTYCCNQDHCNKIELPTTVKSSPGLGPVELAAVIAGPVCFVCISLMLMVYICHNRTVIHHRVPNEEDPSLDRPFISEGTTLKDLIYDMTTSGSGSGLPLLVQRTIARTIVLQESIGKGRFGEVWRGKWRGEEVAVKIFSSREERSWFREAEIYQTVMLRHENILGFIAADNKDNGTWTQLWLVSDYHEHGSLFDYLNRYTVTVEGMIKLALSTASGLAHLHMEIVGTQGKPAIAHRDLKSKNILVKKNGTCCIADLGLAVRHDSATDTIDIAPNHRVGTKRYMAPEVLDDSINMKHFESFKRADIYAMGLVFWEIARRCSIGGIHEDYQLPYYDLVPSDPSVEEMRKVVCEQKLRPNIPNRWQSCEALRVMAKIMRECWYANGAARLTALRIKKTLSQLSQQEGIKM
Experiment: Biochemical ALK5 (TGF-βR1) assay to measure pKi (LANCE Ultra ULight kinase assay)
Details: apparent pKi from pIC50 by Cheng-Prusoff, read-out: ALK5 pKi (converted)

Examples from the recorded data:
COMPOUND: Cc1cccc(-c2n[nH]cc2-c2ccc3ncc(N(C)CCN4CCOCC4)cc3n2)n1
Ki: 0.0398 to 0.316 nM
--
COMPOUND: Cc1nc(-c2n[nH]cc2-c2ccc3ncc(-c4nc(C(F)(F)F)n5c4CNCC5)cc3n2)ccc1F
Ki: 0.0398 to 0.316 nM
--
COMPOUND: Cc1cccc(-c2n[nH]cc2-c2ccc3ncc(C4=CCNCC4)cc3n2)n1
Ki: < 0.0316 nM
--
COMPOUND: Cc1cccc(-c2[nH]nnc2-c2ccc3ncc(NCCN4CCN(C(C)C)CC4)cc3c2)n1
Ki: 0.0398 to 0.316 nM
--
COMPOUND: Cc1cccc(-c2n[nH]cc2-c2ccc3ncc(N4CC[C@@H](N5CCCCC5)C4)cc3n2)n1
Ki: < 0.0316 nM
--
COMPOUND: Cc1cccc(-c2[nH]cnc2-c2ccc3ncc(C(=O)OC[C@@H]4CCCCN4)cc3c2)n1
Ki: 0.398 to 3.16 nM

Determine from records and report Ki for `Cc1cccc(-c2[nH]cnc2-c2ccc3ncc(-c4nccc(C(=O)O[C@@H]5CCNC5)n4)cc3c2)n1`
0.398 to 3.16 nM

Tell us which Ki value is on record for `Cc1cccc(-c2n[nH]cc2-c2ccc3ncc(-c4nc5c([nH]4)CCNC5)cc3n2)n1`
0.0398 to 0.316 nM

Please indicate Ki recorded for `Cc1cccc(-c2[nH]cnc2-c2ccc3ncc(NCCN4CC5(CCNCC5)C4)cc3c2)n1`
0.0398 to 0.316 nM

Determine its reported Ki: Cc1cccc(-c2[nH]cnc2-c2ccc3ncc(C4=CCC(O)CC4)cc3c2)n1 (stereo not shown)
< 0.0316 nM

Please list Ki recorded for the compound `CCOc1nc(-c2ccc3ncc(Br)cc3c2)c(-c2cccc(C)n2)[nH]1`
0.398 to 3.16 nM

Output Ki of `Cc1cccc(-c2n[nH]cc2-c2ccc3ncc(-c4cn(-c5ccccc5)nn4)cc3n2)n1`
0.0398 to 0.316 nM
